From: ChEMBL document CHEMBL1136499

TEST SYSTEM: Tripeptidyl-peptidase 2 (Rattus norvegicus, UniProt Q64560)
Sequence (Q64560 whole entry): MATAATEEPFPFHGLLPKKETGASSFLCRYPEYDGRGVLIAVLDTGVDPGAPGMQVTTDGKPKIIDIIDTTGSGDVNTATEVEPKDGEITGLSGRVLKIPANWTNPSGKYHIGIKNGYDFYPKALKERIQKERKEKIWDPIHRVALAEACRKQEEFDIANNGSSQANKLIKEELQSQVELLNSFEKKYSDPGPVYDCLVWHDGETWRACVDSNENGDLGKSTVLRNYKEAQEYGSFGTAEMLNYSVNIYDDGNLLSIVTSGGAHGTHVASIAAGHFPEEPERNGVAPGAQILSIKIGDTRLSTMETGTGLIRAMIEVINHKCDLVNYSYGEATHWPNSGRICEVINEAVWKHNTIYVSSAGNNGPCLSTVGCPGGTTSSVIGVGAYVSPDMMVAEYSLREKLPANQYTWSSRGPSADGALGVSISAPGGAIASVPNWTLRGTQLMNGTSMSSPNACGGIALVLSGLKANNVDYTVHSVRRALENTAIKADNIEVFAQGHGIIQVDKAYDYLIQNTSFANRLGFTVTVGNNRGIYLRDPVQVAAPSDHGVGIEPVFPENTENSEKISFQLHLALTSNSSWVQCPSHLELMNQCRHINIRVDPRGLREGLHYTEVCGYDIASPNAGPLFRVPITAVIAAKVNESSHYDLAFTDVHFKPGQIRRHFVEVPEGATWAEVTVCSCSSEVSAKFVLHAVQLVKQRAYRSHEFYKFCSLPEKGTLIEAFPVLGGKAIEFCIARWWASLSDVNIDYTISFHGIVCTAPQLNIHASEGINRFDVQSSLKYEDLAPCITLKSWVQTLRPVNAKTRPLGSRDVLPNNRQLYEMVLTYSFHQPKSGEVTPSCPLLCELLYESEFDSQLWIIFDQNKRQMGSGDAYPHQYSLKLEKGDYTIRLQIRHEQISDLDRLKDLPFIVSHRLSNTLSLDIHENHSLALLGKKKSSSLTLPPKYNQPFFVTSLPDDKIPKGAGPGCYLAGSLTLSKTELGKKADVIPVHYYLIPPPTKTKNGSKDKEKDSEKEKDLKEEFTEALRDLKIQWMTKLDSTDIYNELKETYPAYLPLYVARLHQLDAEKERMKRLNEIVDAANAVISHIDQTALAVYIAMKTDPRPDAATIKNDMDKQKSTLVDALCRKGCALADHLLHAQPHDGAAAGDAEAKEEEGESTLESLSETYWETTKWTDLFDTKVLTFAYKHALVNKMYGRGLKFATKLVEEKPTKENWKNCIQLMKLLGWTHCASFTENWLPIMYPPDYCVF
Output: class label from IC50. Mapping: low class: < 50 nM; middle class: ≥ 50 nM and < 400 nM; high class: ≥ 400 nM

Example entries and their recorded answers appear below.
| MOLECULE | LABEL CLASS |
| --- | --- |
| CCc1c[nH]c([C@@H]2Cc3ccccc3N2C(=O)CN)n1 | middle class |
| CCCc1cnc([C@@H]2Cc3cc(F)ccc3N2C(=O)CN)[nH]1 | low class |
| CCCc1[nH]c([C@@H]2Cc3ccccc3N2C(=O)CN)nc1C(=O)NCC(=O)OC | middle class |
| CCCc1c[nH]c([C@@H]2Cc3cc(OC)ccc3N2C(=O)CN)n1 | middle class |

Quick check: band for `CCCc1c[nH]c([C@@H]2Cc3cc(Cl)ccc3N2C(=O)CN)n1`
low class

Moving on to `CCc1cnc([C@@H]2Cc3ccccc3N2C[C@H](C)N)[nH]1`
high class

Also `CCCc1c[nH]c([C@@H]2Cc3ccccc3N2C(=O)[C@H](N)CC)n1` ?
low class

Input `CCc1cn(C)c([C@@H]2Cc3ccccc3N2C(=O)CN)n1`
high class

// next record `CCCc1c[nH]c([C@@H]2Cc3ccccc3N2C(=O)c2c[nH]cn2)n1`
high class

Next molecule: `CCCc1c[nH]c([C@@H]2Cc3ccccc3N2C(=O)[C@@H](N)CCC)n1`
low class

What do you get for `CCCc1cnc([C@@H]2Cc3ccccc3N2C(=O)[C@H]2CCCN2)[nH]1` ?
high class

Follow-up entry: CCC(N)C(=O)N1c2ccccc2C[C@H]1c1nc2ccccc2[nH]1 (stereo partly specified)
high class

Now the same for `CCCc1cnc([C@@H]2Cc3ccccc3N2C(=O)[C@@H](N)Cc2ccccc2)[nH]1`
high class

Try `CCc1cnc([C@@H]2Cc3ccccc3N2C(=O)CN)s1` next.
high class

What do you have for `CCCc1cnc([C@@H]2Cc3ccccc3N2C(=O)CCN)[nH]1` ?
high class
